Recorded values, source ChEMBL document CHEMBL1201862.

Catalogue of GI50 values
test system: OVCAR-3; test: NCI tumour cell line growth inhibition, 48 h
The source made the active and inactive calls. Rule as the data show it: active = GI50 up to about 1.1 µM and inactive = higher. Where a SMILES comes first, the peptide text is derived from it. The star is where a group is joined. Cbz = O=C(OCc1ccccc1)*

> print(dat)
                                   compound       value.observed
1  N=C(N)NS(=O)(=O)c1ccc(NC(=O)c2c3ccccc3nc3ccccc23)cc1  > 100 µM (inactive)

The value of GI50 recorded for COC(=O)C(CC(C)C)NC(=O)C(CCCNC(=N)N)NC(=O)OCc1ccccc1 (stereo not drawn) (Cbz-Arg-Leu-OMe; configuration not given here) when tested on OVCAR-3 reads > 100 µM (inactive)

The value of GI50 recorded for "CC1(C)OC(=O)CC12CCN(Cc1ccccc1)CC2" when tested on OVCAR-3 reads > 100 µM (inactive)

The value of GI50 recorded for "CN(CCCN1C(=O)c2cccc3cc([N+](=O)[O-])cc(c23)C1=O)CCN(C)CCCN1C(=O)c2cccc3cc([N+](=O)[O-])cc(c23)C1=O" when tested on OVCAR-3 reads > 39.3 µM (inactive)
